Molecular target: Phosphatidylinositol 4,5-bisphosphate 3-kinase catalytic subunit delta isoform (Homo sapiens)
Sequence (O00329 whole entry): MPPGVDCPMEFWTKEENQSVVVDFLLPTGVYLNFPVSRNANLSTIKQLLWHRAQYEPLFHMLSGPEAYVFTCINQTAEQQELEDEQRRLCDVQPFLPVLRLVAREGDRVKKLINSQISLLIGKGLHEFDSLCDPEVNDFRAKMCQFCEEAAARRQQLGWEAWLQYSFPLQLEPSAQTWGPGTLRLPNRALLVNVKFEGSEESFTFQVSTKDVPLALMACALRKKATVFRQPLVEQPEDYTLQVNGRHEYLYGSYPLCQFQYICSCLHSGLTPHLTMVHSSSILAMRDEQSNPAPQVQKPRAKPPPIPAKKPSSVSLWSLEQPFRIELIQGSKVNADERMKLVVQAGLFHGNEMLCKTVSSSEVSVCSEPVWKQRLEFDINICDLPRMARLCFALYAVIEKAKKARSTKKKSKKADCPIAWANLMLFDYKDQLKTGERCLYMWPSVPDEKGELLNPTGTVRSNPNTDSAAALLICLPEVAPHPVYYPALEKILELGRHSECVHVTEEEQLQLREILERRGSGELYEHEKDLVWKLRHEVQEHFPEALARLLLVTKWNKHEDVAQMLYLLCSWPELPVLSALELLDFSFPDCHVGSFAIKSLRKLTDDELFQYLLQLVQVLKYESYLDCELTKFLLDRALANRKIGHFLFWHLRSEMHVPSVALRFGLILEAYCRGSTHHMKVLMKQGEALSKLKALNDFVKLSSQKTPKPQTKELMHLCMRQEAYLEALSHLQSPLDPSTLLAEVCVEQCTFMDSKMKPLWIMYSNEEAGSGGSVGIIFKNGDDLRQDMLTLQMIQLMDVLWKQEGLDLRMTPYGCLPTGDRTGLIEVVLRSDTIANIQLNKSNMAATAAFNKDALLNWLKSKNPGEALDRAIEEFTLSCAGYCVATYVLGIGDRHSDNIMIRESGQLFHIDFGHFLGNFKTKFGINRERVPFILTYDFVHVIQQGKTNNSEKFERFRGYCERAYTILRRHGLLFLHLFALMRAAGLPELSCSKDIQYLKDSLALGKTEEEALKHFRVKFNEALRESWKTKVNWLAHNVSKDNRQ
Assay: Inhibition of PI3K delta (unknown origin)
ASSAY_ENDPOINT: IC50
Remember to put the unit after the number in your answer.

Value of IC50 reported for the molecule COc1ncc(-c2ccc3ncnc(O[C@H]4CCN(C(=O)C5CCOCC5)C4)c3c2)cc1C#N is 4.9 nM
